Target: T1, recombinant human FH fragment CCP 19-20 (human, UniProt P08603 1107-1231)
T1 construct: domain: CCP 19-20
T1 sequence (looked up): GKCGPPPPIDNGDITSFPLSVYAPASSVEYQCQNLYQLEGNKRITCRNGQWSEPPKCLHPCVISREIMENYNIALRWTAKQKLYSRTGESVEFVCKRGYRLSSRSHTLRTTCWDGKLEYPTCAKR
Assay: competition ELISA: mAb captured on RM-19 coated plate, FH-bt mixed with unlabelled CCP 19-20
measurementLabel: binding result

binder: anti-FHR-1.11E1 (antibody, V domains shown, Mouse monoclonal from a hybridoma, raised against recombinant human FHR-1) VH: QVQLKQSGPGLVQPSQSLSITCTVSGFSLTNYGVHWVRQPPGKGLEWLGVIWSGGNTDYNAAFISRLSISKDNSKSQVFFKMNSLQADDTAIYYCAKNGDYGYTMDYWGQGTSVTVSS VL: DVVMTQTPLSLPVSLGDQASISCRSSQSLVHSNGNTYLHWYLQKPGQSPKLLIYKLSNRFSGVPDRFSGSGSGTDFTLKISRVEAEDLGVYFCSQSTHVPFTFGSGTKLEIK
measurementLabel: binding result
recordedResult: no binding

binder: anti-FHR-1.3B4 (antibody, V domains shown, Mouse monoclonal from a hybridoma, raised against recombinant human FHR-1; also called aFHR-1 3B4) VH: QVQLRQSGPGLVQPSQSLSITCTVSGFSLTNYGVYWVRQSPGKGLEWLGVIWSGGTTDYSAAFISRLSISKDNSKSQVFFKMNSLQADDTAIYYCARNFGNYAMDYWGQGTSVTVSS VL: QIVLSQSPTILSASPGEKVTMTCRASSSVTYMHWYQQKPGSSPKPWIYATSNLASGVPARFSGSGSGTSYSLTISRVEAEDAATYYCQQRSSSNPLTFGAGTKLELK
measurementLabel: binding result
recordedResult: no binding

These entries and their values trace back to patent US20220356235A1.
